assay: Dissociation constant of the compound; format: physicochemical
measurement label: pKd
pKd here is simply -log10 of the concentration when that concentration is written in mol/L.

*Q* Record request: pKd value, item `Cn1c(=O)c2[nH]cnc2n(C)c1=O`
*A* 6.40

*Q* Record request: pKd value, item `CC(=O)c1ccc2c(c1)N(CCCN(C)C)c1ccccc1S2`
*A* 7.00

*Q* Record request: pKd value, item `NC[C@@H]1O[C@H](O[C@H]2[C@@H](O)[C@H](O[C@@H]3[C@@H](O)[C@H](N)C[C@H](N)[C@H]3O[C@H]3O[C@H](CO)[C@@H](O)[C@H](O)[C@H]3N)O[C@@H]2CO)[C@H](N)[C@@H](O)[C@@H]1O`
*A* 6.70

*Q* Record request: pKd value, item Cc1cc2nc3c(=O)[nH]c(=O)nc-3n(C[C@H](O)[C@H](O)[C@H](O)COP(=O)(O)O)c2cc1C [RIBOFLAVIN 5'-PHOSPHATE]
*A* 6.30

---

assay: Dissociation constant of the compound; type: physicochemical
Known Kd of a selection of compounds
Numbers only; they are read as µM.

Below: 5 compounds and their reported Kd.
NC[C@H]1O[C@H](O[C@H]2[C@H](O)[C@@H](O[C@H]3O[C@H](CO)[C@@H](O)[C@H](N)[C@H]3O)[C@H](N)C[C@@H]2N)[C@H](N)C[C@@H]1O : 0.0009
NC(=O)NCCC[C@H](N)C(=O)O : 68
N=C(N)NCCC[C@H](N)C(=O)O (stereo in doubt; form 2) [ARGININE] : 1000
O=C(O)CCCC[C@@H]1SC[C@@H]2NC(=O)N[C@@H]21 : 6
NC[C@@H]1O[C@H](O[C@H]2[C@@H](O)[C@H](O[C@@H]3[C@@H](O)[C@H](N)C[C@H](N)[C@H]3O[C@H]3O[C@H](CN)[C@@H](O)[C@H](O)[C@H]3N)O[C@@H]2CO)[C@H](N)[C@@H](O)[C@@H]1O (stereo in doubt; form 1) [FRAMYCETIN] : 1

*Q* Record request: Kd value, item Nc1ncnc2c1ncn2[C@@H]1O[C@H](COP(=O)(O)O)[C@@H](O)[C@H]1O [ADENOSINE PHOSPHATE]
*A* 2.7

*Q* Record request: Kd value, item NC[C@@H]1O[C@H](O[C@H]2[C@@H](O)[C@H](O[C@@H]3[C@@H](O)[C@H](N)C[C@H](N)[C@H]3O[C@H]3O[C@H](CN)[C@@H](O)[C@H](O)[C@H]3N)O[C@@H]2CO)[C@H](N)[C@@H](O)[C@@H]1O (stereo in doubt; form 2) [FRAMYCETIN]
*A* 0.1

*Q* Record request: Kd value, item `NC[C@H]1O[C@H](O[C@H]2[C@H](O)[C@@H](O)[C@H](N)C[C@@H]2N)[C@H](N)[C@@H](O)[C@@H]1O`
*A* 1

*Q* Record request: Kd value, item N=C(N)NCCC[C@H](N)C(=O)O (stereo in doubt; form 1) [ARGININE]
*A* 60
